assay: Plasma pharmacokinetic parameters following intravenous (IV) or oral (PO) administration in rats; type: in vivo, Sprague-Dawley rats; details: male, Sprague-Dawley, rat, plasma, intravenous, 0.5 mg/kg, Table 6; essentially as described in Example 28
REPORTED METRIC: clearance (mL/min/kg)
Numbers only here, please. The scale is mL/min/kg.

# annotated cases, reported clearance shown
- CPD SMILES: "COCCOc1ccc(N2CCN(CCN(C)c3cc4nc(-c5ncco5)nn4c(N)n3)CC2)c(OC)c1"
  EXPERIMENTAL VALUE: 44
- CPD SMILES: "COCCOc1ncc(N2CCN(CCN(C)c3cc4nc(-c5ncco5)nn4c(N)n3)CC2)cc1C(F)(F)F"
  EXPERIMENTAL VALUE: 38
- CPD SMILES: "[2H]C([2H])([2H])N(CCN1CCN(c2ccc(OCCOC)cc2)CC1)c1cc2nc(-c3ncco3)nn2c(N)n1"
  EXPERIMENTAL VALUE: 34
- CPD SMILES: "[2H]C([2H])([2H])OCCOc1ccc(N2CCN(CCN(C)c3cc4nc(-c5ncco5)nn4c(N)n3)CC2)cc1"
  EXPERIMENTAL VALUE: 24
- CPD SMILES: "[2H]C([2H])([2H])OCCOc1ccc(N2CCN(CCN(c3cc4nc(-c5ncco5)nn4c(N)n3)C([2H])([2H])[2H])CC2)cc1"
  EXPERIMENTAL VALUE: 22

**Query** Item under review: COCCOc1ccc(N2CCN(CCNc3cc4nc(-c5ncco5)nn4c(N)n3)CC2)cc1 . Reported clearance?
**Result** 28

**Query** Repeat with COCCOc1ccc(N2CCN(CCN(C)c3cc4nc(-c5ncco5)nn4c(N)n3)CC2)nc1
**Result** 52

**Query** Repeat with COCCOc1ccc(N2CCN(CCN(C)c3nc(N)n4nc(-c5ncco5)nc4n3)CC2)cc1
**Result** 54

**Query** Repeat with COCCOc1cnc(N2CCN3[C@H](CC[C@H]3CN(C)c3cc4nc(-c5ncco5)nn4c(N)n3)C2)c(F)c1
**Result** 30

**Query** Repeat with [2H]C([2H])([2H])OCCOc1cnc(N2CCN(CCN(C)c3cc4nc(-c5ncco5)nn4c(N)n3)CC2)c(F)c1
**Result** 30

**Query** Repeat with [2H]C([2H])([2H])OCCOc1ccc(N2CCN(CCN(C)c3cc4nc(-c5ncco5)nn4c(N)n3)CC2)c(F)c1
**Result** 30

**Query** Repeat with [2H]C([2H])(N1CCN(c2ccc(OCCOC)cc2)CC1)C([2H])([2H])N(C)c1cc2nc(-c3ncco3)nn2c(N)n1
**Result** 23

###

assay: Brain-to-plasma ratio (B/P) after administration; assay type: in vivo, Sprague-Dawley rats; conditions: Sprague-Dawley, rat, oral, 2.5 mg/kg; Table 6; brain-to-plasma ratio at 1 h
REPORTED METRIC: Kp at 1 h
Just the number.

- CPD SMILES: "CN(CCN1CCN(c2ccc(OCCOC(F)(F)F)cc2)CC1)c1cc2nc(-c3ncco3)nn2c(N)n1"
  Kp at 1 h: 0.1
- CPD SMILES: "[2H]C([2H])([2H])OC([2H])([2H])C([2H])([2H])Oc1ccc(N2C([2H])([2H])C([2H])([2H])N(C([2H])([2H])C([2H])([2H])N(c3cc4nc(-c5ncco5)nn4c(N)n3)C([2H])([2H])[2H])C([2H])([2H])C2([2H])[2H])cc1"
  Kp at 1 h: 0.05
- CPD SMILES: "COCCOc1ccc(N2CCN(CCN(C)c3cc4nc(-c5ncco5)nn4c(N)n3)CC2)c(OC)c1"
  Kp at 1 h: 0.03

Next:
**Query** Item under review: [2H]C([2H])([2H])OC([2H])([2H])C([2H])([2H])Oc1ccc(N2CCN(CCN(C)c3cc4nc(-c5ncco5)nn4c(N)n3)CC2)cc1 . Reported Kp at 1 h?
**Result** 0.03
